Assignment: determine reported pest or weed control at 250 ppm for the given compounds.
System: Barnyardgrass (Echinochloa crus-galli)
TEST: Postemergence herbicidal activity, Barnyardgrass
Assay type: in vivo
EXPERIMENTAL SETUP: post-emergence, 336 h, rate 250 ppm, visual score after 2 weeks, 0 = no injury, 100 = complete kill, read-out: Post-emergent % control ECHCG
Procedure: Seeds of the desired test plant species were planted in Grace-Sierra MetroMix® 306 planting mixture, which typically has a pH of 6.0 to 6.8 and an organic matter content of about 30 percent, in plastic pots with a surface area of 64 square centimeters. […] After 2 weeks the condition of the test plants as compared with that of the untreated plants was determined visually and scored on a scale of 0 to 100 percent where 0 corresponds to no injury and 100 corresponds to complete kill.
Form entry: value (%) — number only.

Query: Fill in reported pest or weed control at 250 ppm for this entry: "CCc1nc(C(=O)OC)c(Cl)c(N)c1F"
Reply: 85

Query: Give me measured pest or weed control at 250 ppm, please, for this compound: "CCc1cc(N)c(Cl)c(C(=O)OC)n1"
Reply: 0

Query: Report measured pest or weed control at 250 ppm; entry is "C=Cc1nc(C(=O)OC)c(Cl)c(N)c1F"
Reply: 60

Query: Give the measured pest or weed control at 250 ppm for "CCc1nc(C(=O)O)c(Cl)c(N)c1F"
Reply: 85

Query: Give me measured pest or weed control at 250 ppm, please, for this compound: "Cc1cc(N)c(Cl)c(C(=O)O)n1"
Reply: 0

Query: For the compound "CCc1cc(N)c(Cl)c(C(=O)O)n1" , give its measured pest or weed control at 250 ppm value.
Reply: 0

Query: Hello, please tell me recorded pest or weed control at 250 ppm for this one: "C=CCc1cc(N)c(Cl)c(C(=O)O)n1"
Reply: 0

Query: Give recorded pest or weed control at 250 ppm. "COC(=O)c1nc(C)c(F)c(N)c1Cl"
Reply: 80

Query: Name the recorded pest or weed control at 250 ppm of the compound listed here: "C=Cc1cc(N)c(Cl)c(C(=O)OC)n1"
Reply: 0

Query: Name the recorded pest or weed control at 250 ppm of the compound listed here: "COCc1cc(N)c(Cl)c(C(=O)O)n1"
Reply: 0

Query: Look up pest or weed control at 250 ppm of "CSCc1cc(N)c(Cl)c(C(=O)O)n1" and report it.
Reply: 0

Origin of values: patent US7432227B2
